Biological target: T1, KDM5B-PHD1-Y334A (Homo sapiens)
T1 chain: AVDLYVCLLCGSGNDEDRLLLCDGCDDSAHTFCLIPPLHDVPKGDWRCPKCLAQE
Assay: ITC
measure: Kd (µM)
Give a bare numeral; the unit µM is implied.

Asked: Need Kd of ARTKQTARKS (histone H3 N-terminal tail, residues 1-10; also called H3K4me0; H3K4me0 peptide; source: synthetic peptide, bought: GL Biochem Ltd. (Shanghai, China)) [unmodified H3K4 peptide (residues 1-10)] , thanks.
Given back: 12.6

Cited source: paper PMC4225485
